B1: Zinc finger MYM-type protein 6, residues 427 to 504; numbered along this chain, O95789 (parent)
chain: KLKCQHCNHLFATKPELLFYKGKMFLFCGKNCSDEYKKKNKVVAMCDYCKLQKIIKETVRFSGVDKPFCSEVCKFLSA

variants of: B1; experiment: abundance fitness (aPCA) (normalised: wild type 0, dead -1); higher = more abundant; growth selection in yeast, the domain comes from the species named; conditions: Homo sapiens
Collected abundance fitness values appear next to each entry.

| variant-key | abundance fitness |
| --- | --- |
| V43R | -0.224 |
| K23H | -0.048 |
| F27K | -0.727 |
| S33H | -0.192 |
| S77G | 0.139 |
| K53P | -0.154 |
| M45C | -0.407 |
| V59A | -0.078 |
| G63L | -0.315 |
| G63W | -0.486 |
| M24C | -0.004 |
| K66C | -0.635 |
| C32Q | -0.944 |
| K74Q | -0.123 |
| Y48R | -0.043 |
| G22A | -0.065 |
| M45Y | 0.35 |
| C46G | -0.629 |
| Y36N | -0.172 |
| N31R | 0.012 |
| N31C | -0.1 |
| Y48G | -0.174 |
| C46M | -0.159 |
| L26R | 0.089 |
| S77V | -0.857 |
| C28S | -0.969 |
| G22E | 0.049 |
